Target: T1, human GLP-2 receptor (human, UniProt O95838 1-553, limits assumed)
T1 sequence (looked up): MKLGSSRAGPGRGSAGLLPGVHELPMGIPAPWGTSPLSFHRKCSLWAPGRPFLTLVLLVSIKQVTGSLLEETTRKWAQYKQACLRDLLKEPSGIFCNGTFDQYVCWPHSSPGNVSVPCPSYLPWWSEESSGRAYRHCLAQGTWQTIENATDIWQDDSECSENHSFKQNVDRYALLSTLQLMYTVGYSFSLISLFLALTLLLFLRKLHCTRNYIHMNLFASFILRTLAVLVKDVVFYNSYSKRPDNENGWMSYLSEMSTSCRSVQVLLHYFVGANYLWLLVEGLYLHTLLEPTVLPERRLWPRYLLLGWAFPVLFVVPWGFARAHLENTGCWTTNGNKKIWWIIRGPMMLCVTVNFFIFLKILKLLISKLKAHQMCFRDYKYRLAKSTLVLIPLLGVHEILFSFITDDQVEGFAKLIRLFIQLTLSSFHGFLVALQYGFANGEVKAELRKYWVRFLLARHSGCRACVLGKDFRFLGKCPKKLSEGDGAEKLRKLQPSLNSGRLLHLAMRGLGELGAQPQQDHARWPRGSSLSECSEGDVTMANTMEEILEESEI
Experiment: cell-based or functional assay
Numbered stars: 1 amine (or outer) side, 2 acyl side, 3 side chain; on linkers, the order of the positions; unused ones are H or OH. Side chains are listed from the residue outwards. Ends that are not written are not given here. * marks the point of attachment. γGlu = O=C(O)[C@H](CCC(=O)[*:2])N[*:1]; Palmitoyl = CCCCCCCCCCCCCCCC(=O)*
Measured GLP-2R, EC50 of individual entries

Check out these entries, answers already filled in.
[
  {
    "binder": "HAEGTFTSDVSSYLEGQAAKEFIAWLVKG (ligand, ends and bridges not checked) [native human GLP-1]",
    "GLP-2R, EC50": "> 100 nM"
  },
  {
    "binder": "HGDGSFK([γGlu-Palmitoyl])SELSTYLDALAARDFIAWLIQTKITD [SEQ ID NO 19]",
    "GLP-2R, EC50": "> 100 nM"
  }
]

// sample HGDGSFTSELSTYLDALAAK([γGlu-Palmitoyl])DFIAWLIQTKITD [SEQ ID NO 26] , its GLP-2R, EC50 was > 100 nM
